# System: NCI/ADR-RES ovarian
# Assay explanation: NCI tumour cell line growth inhibition, 48 h
Parameter TGI: see the listing below.
Endpoint name: TGI (µM)

Molecule | Relation sign | Quantitative readout
O=C1NC(=O)C(c2cccc(Cl)c2)=C1Nc1ccc(Cl)c(C(=O)O)c1 | > | 25
CCC[CH2][Sn]([CH2]CCC)([CH2]CCC)/[C](=C/[Si](C)(C)c1ccccc1)c1ccc2c(c1)OCO2 | = | 86.3
COC(=O)CCC(=O)NC1=C(Nc2ccccc2)C(=O)c2ccccc2C1=O | = | 39.9
N#C/C(=C/N1CCN(C(=O)c2ccco2)C1=S)C(=O)Nc1ccc(Cl)cc1 | > | 50
O=C1C(N2CCN(CCOCCO)CC2)=C(Cl)C(=O)c2ncccc21 | > | 100
CSc1nnc(SCc2nn3c(=O)cc(C)nc3s2)s1 | > | 100
CC1=C(CO)C(=O)O[C@@H]([C@@H](C)[C@H]2CC[C@H]3[C@@H]4C[C@H]5O[C@]56[C@@H](O)C=CC(=O)[C@]6(C)[C@H]4CC[C@]23C)C1 | = | 11.2
COC(=O)c1c2c(cc3c1CC1(Cc4cc5c(c(C)c4C1)CCC5)C3)CCC2 (centres undefined) | > | 100
COc1cc2nc(N3CCC[C@H](NC4=CC(=O)c5ccccc5C4=O)C3)nc(N)c2cc1OC | = | 5.44

====

# Test system: SK-MEL-2 melanoma
# Assay explanation: NCI tumour cell line growth inhibition, 48 h
Each record here notes measured TGI.
Endpoint name: TGI

Compound | Result
c1cc2cc3c4c5c(cc6ccc7cc8cc9c%10c8c8c7c6c5c8c5c%10c(c1C9N1CCOCCOCCOCCOCCOCC1)c2c45)C3 (stereo not drawn) | > 100 µM
CC(OP(=O)(O)O)C(N)C(=O)O (stereo not drawn) | > 100 µM
C=C(Br)C[N+]12CN3CN(CN(C3)C1)C2 | > 100 µM

====

# System: K-562 leukemia
# Assay explanation: NCI tumour cell line growth inhibition, 48 h
Reported TGI values for the following compounds.

Compound | TGI
CC(C)N(C(=O)C12C3C4C5(C(=O)O)C(C1C35I)C42C(=O)O)C(C)C (stereo not given) | > 100 µM
NC(N)=NC(N)=Nc1ccc(C(=O)O)cc1 | > 100 µM
O=CC(O)C(O)C(O)C(O)COC(=O)NCCCCC(=O)C(F)(F)C(F)(F)C(F)(F)C(F)(F)C(F)(F)C(F)(F)C(F)(F)F (stereo not given) | 58.5 µM
CC1=NN(c2ccccc2)C(=O)C12[C@H](c1ccccc1)C2(C#N)C#N (stereo not given in full) | 6.12 µM
Cn1c2ccccc2n2c3ncccc3c(=O)cc12 | > 100 µM
Cc1ccccc1-n1c(=S)[nH]c2c(sc(=O)n2-c2ccccc2C)c1=O | > 100 µM
CC(C)(C)OC(=O)C(C#N)C(=O)c1ccc(C(=O)O)[nH]1 (stereo not given) | > 100 µM
COc1cc(S(=O)(=O)Nc2ccc(-c3csc(N4C(=O)C(Cl)C4c4ccccc4O)n3)cc2)ccc1Cl (stereo not given) | > 100 µM
CCOC(=O)[C@@]12C(C)=CC(=O)O[C@]1(C)C1C(=O)NC(=O)C12 (stereo not given in full) | > 100 µM
N#C/C(=C/N1CCN(C(=O)c2ccco2)C1=S)C(=O)Nc1ccc(Cl)cc1 | > 50 µM

====

# System: U251 CNS
# Assay explanation: NCI tumour cell line growth inhibition, 48 h
Reported TGI is given for each of the following compounds.

Compound | Assayed target | TGI
Oc1cccc2c(Br)ccnc12 | U251 CNS | 20.4 µM
CCOC(=O)c1sc2c(C(=O)OCC)n3cc(C)cc(C)c3c2c1O | U251 CNS | > 100 µM
CN1CCN(Cc2ccc(NC(=O)c3[nH]ncc3Nc3ncnc4[nH]ccc34)cc2)CC1 | U251 CNS | 10.7 µM
CC/C=C/c1cc2c(cc1O)CCC1C2CC[C@@]2(C)C1CC[C@@H]2O (stereo partly specified) | U251 CNS | 15.7 µM
Cc1nc(C)c(N2CCN(CN)CC2)c(=O)[nH]1 | U251 CNS | > 100 µM
CC(CCc1nc2ccccc2s1)(c1ccc(O)cc1)c1ccc(O)cc1 | U251 CNS | 27.7 µM

====

# Test system: RXF 393 renal
# Assay explanation: NCI tumour cell line growth inhibition, 48 h
# TGI per entry
Endpoint name: TGI

Molecule | Result
O=CC(O)C(O)C(O)C(O)COC(=O)NCCCCC(=O)C(F)(F)C(F)(F)C(F)(F)C(F)(F)C(F)(F)C(F)(F)C(F)(F)F (stereo not given) | 62.4 µM
Cc1ccc(N=C/C=C(\Nc2ccc(C)cc2)c2ccc3ccccc3c2)cc1 | 8.52 µM
S=C1C(=Nc2ccccc2)N(c2ccccc2)/C(=N\c2cccc[n+]2Cc2ccccc2)N1c1ccccc1 | 27.3 µM
C=CC(C)(C)/C=C/c1ccc(O)cc1 | > 100 µM
O=C(O)COc1ccc(OCC(=O)O)cc1 | 4.64 µM

====

# Test system: 786-0 renal
# Assay explanation: NCI tumour cell line growth inhibition, 48 h; in the data active means GI50 below about 0.43 µM; inactive means the rest
Outcome codes: active, inactive

Molecule | Class label
O=C1NC(=O)C(c2cccc(Cl)c2)=C1Nc1ccc(Cl)c(C(=O)O)c1 | inactive
CC12CCC(=O)C(O1)C1C(=O)c3ccc4c(ccc5ccccc54)c3C(=O)C12 (stereo unspecified) | inactive
COc1cc(Cc2c(C)cc(OC)c3[nH]c4ccccc4c23)cc2c1[nH]c1ccccc12 | inactive
COc1ccc2nc(C)cc(Sc3nc4ccccc4s3)c2c1 | inactive
CN1CCN(Cc2ccc(NC(=O)c3[nH]ncc3Nc3ncnc4[nH]ccc34)cc2)CC1 | active
CCN(CC)CCCNCc1cc(-c2ccccc2)nc2cc(Cl)ccc12 | inactive
O=c1cc(-c2ccccc2)[nH]c2c1CCCC2 | inactive
N#CC1=C(N)NC(N2CCOCC2)=NC12Nc1ccccc1O2 (stereo unspecified) | inactive
O=C1OCC2=C1C(c1cccc(C(F)(F)F)c1)c1cc3c(cc1N2CCO)OCCO3 (stereo unspecified) | inactive
CN1CCN(C(=O)c2ccc(NC(=O)Nc3ccc(-c4nc(N5CCOCC5)c5cccn5n4)cc3)cc2)CC1 | active
Nc1c(C(=O)c2cccc(C(O)CO)c2)cnn1-c1ccc(F)cc1 (stereo unspecified) | inactive

====

# Tested on: M14 melanoma
# Assay explanation: NCI tumour cell line growth inhibition, 48 h
Endpoint name: TGI (µM)

Molecule | Assayed target | Endpoint name | Relation sign | Quantitative readout
O=C1CC(C2(O)C(=O)Nc3ccc([N+](=O)[O-])cc32)c2ccccc21 (stereo unspecified) | M14 melanoma | TGI | = | 52.2
CCN1CCN(c2cc(C(=O)Nc3cccc(Nc4ccc5c(OC)cccc5n4)c3)cc(C(F)(F)F)c2)CC1 | M14 melanoma | TGI | = | 1.65
Fc1ccc2c(c1)C1=C(CCC2)C(c2ccc(Cl)cc2)NC(=S)N1 (stereo unspecified) | M14 melanoma | TGI | > | 100
CCN(CC)CCCNCc1cc(-c2ccccc2)nc2cc(Cl)ccc12 | M14 melanoma | TGI | = | 3.63
COc1ccc(NC(=O)CC(=O)N/N=C(\C)c2cc3ccccc3oc2=O)cc1 | M14 melanoma | TGI | > | 100
Cc1cc(C)c2c(c1)C/C(=C\c1cccc(C)c1C(=O)O)C2=O | M14 melanoma | TGI | > | 100
COc1cc2c3c(n(C)c(=O)c2cc1OC)-c1cc2c(cc1/C3=C\CCCCCBr)OCO2 | M14 melanoma | TGI | > | 100
COC1=C(OC)C(=O)C(C/C=C(\C)CC/C=C(\C)CC/C=C(\C)CC/C=C(\C)CC/C=C(\C)CC/C=C(\C)CC/C=C(\C)CC/C=C(\C)CC/C=C(\C)CCC=C(C)C)=C(C)C1=O | M14 melanoma | TGI | > | 100
Brc1cc(C2OCCCO2)ccc1OCc1ccccc1 | M14 melanoma | TGI | > | 100
O=c1c2ccccc2nc(N/N=C/c2ccc([N+](=O)[O-])cc2)n1-c1ccccc1 | M14 melanoma | TGI | > | 100
O=C(Nc1ccc(-n2cc(-c3ccncc3)c(-c3ccc(O)c(Cl)c3)n2)cc1)c1ccc(Cl)c(C(F)(F)F)c1 | M14 melanoma | TGI | = | 2.08
CC12OC(C(=O)C13CC3)C1C(=O)c3c(O)ccc(O)c3C(=O)C12 (stereo unspecified) | M14 melanoma | TGI | = | 30.2
Cc1ccccc1-n1c(=S)[nH]c2c(sc(=O)n2-c2ccccc2C)c1=O | M14 melanoma | TGI | > | 100
c1ccc2c[n+](CCCC[n+]3ccc4ccccc4c3)ccc2c1 | M14 melanoma | TGI | > | 100
Cc1c(OCc2cccc3ccccc23)ccc2c(=O)cc(SCCN3CCOCC3)oc12 | M14 melanoma | TGI | > | 100
COc1ccc(-n2c(N)c(C#N)c(C#N)c2-c2ccco2)cc1 | M14 melanoma | TGI | > | 100
Oc1cccc2c(Br)ccnc12 | M14 melanoma | TGI | = | 16.3
O=c1[nH]n(CCc2ccccc2CCl)c2ccc([N+](=O)[O-])cc12 | M14 melanoma | TGI | > | 100
N#C/C(=C/N1CCN(C(=O)c2ccco2)C1=S)C(=O)Nc1ccc(Cl)cc1 | M14 melanoma | TGI | > | 50
O=C1C=CC(=O)c2c1ccc1c3ccccc3n(Cc3ccccc3)c21 | M14 melanoma | TGI | = | 42
CC(C)=Cc1cc(C)c2ccc(C)c3c2c1C(C)=C(O)C3=O | M14 melanoma | TGI | = | 45.7
OCCCCC#Cc1ccccc1C#Cc1cccnc1 | M14 melanoma | TGI | = | 75.4
COc1ccc2c(c1O)[C@@]13CCCC=C1[C@@H](C2)[N+](C)(C)CC3 | M14 melanoma | TGI | > | 100
CC12CCC(=O)C(O1)C1C(=O)c3ccc4c(ccc5ccccc54)c3C(=O)C12 (stereo unspecified) | M14 melanoma | TGI | = | 30.6
CC(C)C1(NC(=O)C2CC3c4cccc5[nH]cc(c45)CC3N(C)C2)OC2(O)C3CCCN3C(=O)C(Cc3ccccc3)N2C1=O (stereo unspecified) | M14 melanoma | TGI | > | 100
O=S(=O)(/N=S(/Nc1ccccc1)C(F)(F)Cl)c1ccccc1 (stereo unspecified) | M14 melanoma | TGI | > | 100
CCC(C)(O)c1cn(-c2ccc(Cl)cc2)nn1 (stereo unspecified) | M14 melanoma | TGI | > | 100
CCCCC#Cc1c(I)n(C2OC(CO[Si](C)(C)C(C)(C)C)C3OC(C)(C)OC32)c(=O)n(C(=O)c2ccccc2)c1=O (stereo unspecified) | M14 melanoma | TGI | = | 3.3
CC(=O)OCC1OC(SC2=NC(=O)CS2)C(OC(C)=O)C(OC(C)=O)C1OC(C)=O (stereo unspecified) | M14 melanoma | TGI | > | 100
COc1c(OC)c(OC)c2c(=O)cc(-c3ccc(OC(C)C)cc3)oc2c1OC | M14 melanoma | TGI | = | 43.1
CC(C)(C)c1ccc(C2CC(=O)C3=C(C2)Nc2ccccc2N(C(=O)c2ccccc2Cl)C3c2ccc(F)cc2)cc1 (stereo unspecified) | M14 melanoma | TGI | > | 100
O=C1C(N2CCN(CCOCCO)CC2)=C(Cl)C(=O)c2ncccc21 | M14 melanoma | TGI | = | 39.2
COc1ccc(Br)c(CN2CCc3ccccc32)c1OS(=O)(=O)c1ccc(C)cc1 | M14 melanoma | TGI | > | 100
Cc1nc2ccc(Br)cc2c(=O)n1-c1ccc(N)cc1 | M14 melanoma | TGI | > | 100
Oc1ccc(Cl)cc1-c1cc(-c2ccccc2)nc(=S)[nH]1 | M14 melanoma | TGI | > | 100
Cc1nc(C)c(N2CCN(CN)CC2)c(=O)[nH]1 | M14 melanoma | TGI | > | 100
C/C(=C\Cc1ccc(F)cc1)CCCCCC/C(C)=C/Cc1ccc(F)cc1 | M14 melanoma | TGI | = | 45.6
CN1CCC(c2c(O)cc(O)c3c(=O)cc(-c4ccccc4Cl)oc23)C(O)C1 (stereo unspecified) | M14 melanoma | TGI | = | 0.236
Cc1ccc(S(=O)(=O)OCCC2CN(C(=O)OCc3ccccc3)C(C)(C)O2)cc1 (stereo unspecified) | M14 melanoma | TGI | = | 38.1
COc1ccc(OC)c2c(C)ccnc12 | M14 melanoma | TGI | = | 34.3
O=C1NC(=O)C(=Cc2cn(Cc3ccccc3)c3ccccc23)C(=O)N1 | M14 melanoma | TGI | = | 44.4

Taken from PubChem BioAssay (NCI).
